- condition_notes: in isopropanol, 323.2 K

test_smiles	solubility (mole fraction)
C[C@H]1[C@H](OC(=O)CCC(=O)O)O[C@@H]2O[C@@]3(C)CC[C@H]4[C@H](C)CC[C@@H]1[C@@]24OO3	0.047

====

- condition_notes: in n-propanol, 283.14 K

test_smiles	solubility (mole fraction)
C[C@H]1[C@H](OC(=O)CCC(=O)O)O[C@@H]2O[C@@]3(C)CC[C@H]4[C@H](C)CC[C@@H]1[C@@]24OO3	0.00832

====

- condition_notes: in isopropyl acetate, 298.14 K
parameter_measured: solubility (mole fraction)

test_smiles	parameter_measured	number
C[C@H]1[C@H](OC(=O)CCC(=O)O)O[C@@H]2O[C@@]3(C)CC[C@H]4[C@H](C)CC[C@@H]1[C@@]24OO3	solubility (mole fraction)	0.0167

====

- condition_notes: in ethanol, 313.14 K
parameter_measured: solubility (mole fraction)

test_smiles	parameter_measured	number
C[C@H]1[C@H](OC(=O)CCC(=O)O)O[C@@H]2O[C@@]3(C)CC[C@H]4[C@H](C)CC[C@@H]1[C@@]24OO3	solubility (mole fraction)	0.0423

====

- condition_notes: in n-pentyl acetate, 318.18 K

test_smiles	solubility (mole fraction)
C[C@H]1[C@H](OC(=O)CCC(=O)O)O[C@@H]2O[C@@]3(C)CC[C@H]4[C@H](C)CC[C@@H]1[C@@]24OO3	0.0216

====

- condition_notes: in isopropanol, 303.21 K

test_smiles	solubility (mole fraction)
C[C@H]1[C@H](OC(=O)CCC(=O)O)O[C@@H]2O[C@@]3(C)CC[C@H]4[C@H](C)CC[C@@H]1[C@@]24OO3	0.016

====

- condition_notes: in n-butyl acetate, 293.2 K

test_smiles	solubility (mole fraction)
C[C@H]1[C@H](OC(=O)CCC(=O)O)O[C@@H]2O[C@@]3(C)CC[C@H]4[C@H](C)CC[C@@H]1[C@@]24OO3	0.015

====

- condition_notes: in isopropyl acetate, 303.19 K
parameter_measured: solubility (mole fraction)

test_smiles	number
C[C@H]1[C@H](OC(=O)CCC(=O)O)O[C@@H]2O[C@@]3(C)CC[C@H]4[C@H](C)CC[C@@H]1[C@@]24OO3	0.0186

====

- condition_notes: in n-butanol, 293.14 K

test_smiles	solubility (mole fraction)
C[C@H]1[C@H](OC(=O)CCC(=O)O)O[C@@H]2O[C@@]3(C)CC[C@H]4[C@H](C)CC[C@@H]1[C@@]24OO3	0.0112

====

- condition_notes: in isopropanol, 288.14 K

test_smiles	solubility (mole fraction)
C[C@H]1[C@H](OC(=O)CCC(=O)O)O[C@@H]2O[C@@]3(C)CC[C@H]4[C@H](C)CC[C@@H]1[C@@]24OO3	0.00717

====

- condition_notes: in n-pentyl acetate, 303.24 K
parameter_measured: solubility (mole fraction)

test_smiles	parameter_measured	number
C[C@H]1[C@H](OC(=O)CCC(=O)O)O[C@@H]2O[C@@]3(C)CC[C@H]4[C@H](C)CC[C@@H]1[C@@]24OO3	solubility (mole fraction)	0.0149

====

- condition_notes: in n-butanol, 283.14 K

test_smiles	solubility (mole fraction)
C[C@H]1[C@H](OC(=O)CCC(=O)O)O[C@@H]2O[C@@]3(C)CC[C@H]4[C@H](C)CC[C@@H]1[C@@]24OO3	0.00719

====

- condition_notes: in n-pentyl acetate, 298.28 K

test_smiles	solubility (mole fraction)
C[C@H]1[C@H](OC(=O)CCC(=O)O)O[C@@H]2O[C@@]3(C)CC[C@H]4[C@H](C)CC[C@@H]1[C@@]24OO3	0.0133

====

- condition_notes: in isopropyl acetate, 323.2 K

test_smiles	solubility (mole fraction)
C[C@H]1[C@H](OC(=O)CCC(=O)O)O[C@@H]2O[C@@]3(C)CC[C@H]4[C@H](C)CC[C@@H]1[C@@]24OO3	0.029

====

- condition_notes: in isopropyl acetate, 288.19 K

test_smiles	solubility (mole fraction)
C[C@H]1[C@H](OC(=O)CCC(=O)O)O[C@@H]2O[C@@]3(C)CC[C@H]4[C@H](C)CC[C@@H]1[C@@]24OO3	0.0135

====

- condition_notes: in n-propanol, 293.14 K
parameter_measured: solubility (mole fraction)

test_smiles	result
C[C@H]1[C@H](OC(=O)CCC(=O)O)O[C@@H]2O[C@@]3(C)CC[C@H]4[C@H](C)CC[C@@H]1[C@@]24OO3	0.013

====

- condition_notes: in isobutanol, 323.15 K

test_smiles	solubility (mole fraction)
C[C@H]1[C@H](OC(=O)CCC(=O)O)O[C@@H]2O[C@@]3(C)CC[C@H]4[C@H](C)CC[C@@H]1[C@@]24OO3	0.0408

====

- condition_notes: in methyl propionate, 293.23 K

test_smiles	solubility (mole fraction)
C[C@H]1[C@H](OC(=O)CCC(=O)O)O[C@@H]2O[C@@]3(C)CC[C@H]4[C@H](C)CC[C@@H]1[C@@]24OO3	0.0258

====

- condition_notes: in ethyl acetate, 298.14 K

test_smiles	solubility (mole fraction)
C[C@H]1[C@H](OC(=O)CCC(=O)O)O[C@@H]2O[C@@]3(C)CC[C@H]4[C@H](C)CC[C@@H]1[C@@]24OO3	0.0278

====

- condition_notes: in n-butyl acetate, 318.14 K

test_smiles	solubility (mole fraction)
C[C@H]1[C@H](OC(=O)CCC(=O)O)O[C@@H]2O[C@@]3(C)CC[C@H]4[C@H](C)CC[C@@H]1[C@@]24OO3	0.0269

====

- condition_notes: in n-propyl acetate, 308.16 K
parameter_measured: solubility (mole fraction)

test_smiles	parameter_measured	result
C[C@H]1[C@H](OC(=O)CCC(=O)O)O[C@@H]2O[C@@]3(C)CC[C@H]4[C@H](C)CC[C@@H]1[C@@]24OO3	solubility (mole fraction)	0.0269

====

- condition_notes: in isopropanol, 313.14 K

test_smiles	solubility (mole fraction)
C[C@H]1[C@H](OC(=O)CCC(=O)O)O[C@@H]2O[C@@]3(C)CC[C@H]4[C@H](C)CC[C@@H]1[C@@]24OO3	0.0276

====

- condition_notes: in n-butanol, 288.07 K

test_smiles	solubility (mole fraction)
C[C@H]1[C@H](OC(=O)CCC(=O)O)O[C@@H]2O[C@@]3(C)CC[C@H]4[C@H](C)CC[C@@H]1[C@@]24OO3	0.00886

====

- condition_notes: in ethyl acetate, 323.19 K

test_smiles	solubility (mole fraction)
C[C@H]1[C@H](OC(=O)CCC(=O)O)O[C@@H]2O[C@@]3(C)CC[C@H]4[C@H](C)CC[C@@H]1[C@@]24OO3	0.0473

====

- condition_notes: in n-butyl acetate, 283.17 K

test_smiles	solubility (mole fraction)
C[C@H]1[C@H](OC(=O)CCC(=O)O)O[C@@H]2O[C@@]3(C)CC[C@H]4[C@H](C)CC[C@@H]1[C@@]24OO3	0.012

====

- condition_notes: in isopentanol, 323.16 K
parameter_measured: solubility (mole fraction)

test_smiles	parameter_measured	number
C[C@H]1[C@H](OC(=O)CCC(=O)O)O[C@@H]2O[C@@]3(C)CC[C@H]4[C@H](C)CC[C@@H]1[C@@]24OO3	solubility (mole fraction)	0.0397

====

- condition_notes: in isobutanol, 303.05 K

test_smiles	solubility (mole fraction)
C[C@H]1[C@H](OC(=O)CCC(=O)O)O[C@@H]2O[C@@]3(C)CC[C@H]4[C@H](C)CC[C@@H]1[C@@]24OO3	0.0155

====

- condition_notes: in isobutanol, 308.08 K
parameter_measured: solubility (mole fraction)

test_smiles	number
C[C@H]1[C@H](OC(=O)CCC(=O)O)O[C@@H]2O[C@@]3(C)CC[C@H]4[C@H](C)CC[C@@H]1[C@@]24OO3	0.0196

====

- condition_notes: in n-pentanol, 308.02 K
parameter_measured: solubility (mole fraction)

test_smiles	parameter_measured	number
C[C@H]1[C@H](OC(=O)CCC(=O)O)O[C@@H]2O[C@@]3(C)CC[C@H]4[C@H](C)CC[C@@H]1[C@@]24OO3	solubility (mole fraction)	0.0328

====

- condition_notes: in methyl propionate, 283.19 K

test_smiles	solubility (mole fraction)
C[C@H]1[C@H](OC(=O)CCC(=O)O)O[C@@H]2O[C@@]3(C)CC[C@H]4[C@H](C)CC[C@@H]1[C@@]24OO3	0.0207

====

- condition_notes: in methyl propionate, 313.24 K
parameter_measured: solubility (mole fraction)

test_smiles	parameter_measured	number
C[C@H]1[C@H](OC(=O)CCC(=O)O)O[C@@H]2O[C@@]3(C)CC[C@H]4[C@H](C)CC[C@@H]1[C@@]24OO3	solubility (mole fraction)	0.0395

====

- condition_notes: in n-pentyl acetate, 293.3 K

test_smiles	solubility (mole fraction)
C[C@H]1[C@H](OC(=O)CCC(=O)O)O[C@@H]2O[C@@]3(C)CC[C@H]4[C@H](C)CC[C@@H]1[C@@]24OO3	0.0117

====

- condition_notes: in n-propanol, 298.08 K

test_smiles	solubility (mole fraction)
C[C@H]1[C@H](OC(=O)CCC(=O)O)O[C@@H]2O[C@@]3(C)CC[C@H]4[C@H](C)CC[C@@H]1[C@@]24OO3	0.0163
